Consider the following compounds; for each one, report its viability index.
# Tested on: Plasmodium falciparum NF54 gametocytes
# assayMethodText: viability index relative to DMSO control (fraction); higher = less gametocyte killing
# conditionLabel: gametocyte stage: Stage II viability index; 12.5 µM; incubation time: 72 h

Guide cases for viability index, answers given:
O=c1cc(NC2CCN(CCCc3ccccc3)CC2)c2cc(Cl)ccc2o1
0.408
N=c1c2ccccc2nnn1-c1cccc(C(F)(F)F)c1
0.714
Cc1nc2ccccc2c(O)c1CC=C(Cl)Cl
0.962

Each compound below has a reported value. Please supply its viability index.
1. C=CCc1c(C)nc2ccccc2c1O
2. COc1ccc(C(=O)Nc2nonc2-c2ccc(OC)c(OC)c2)cc1Cl
3. CCOC(=O)c1cn(CC)c2cc(N(C)CCc3ccc(OC)c(OC)c3)c(F)cc2c1=O
4. CC(=O)NCCc1nc2ccccc2n1Cc1ccc(C(C)C)cc1
5. COc1ccc(C2NCCc3c2[nH]c2ccccc32)cc1CN1CCN(c2ccc(F)cc2)CC1 (stereo unspecified)
6. COc1cc(C(=O)ON=C(N)Cc2cccc3ccccc23)cc(OC)c1OC

1: 0.671; 2: 0.401; 3: 0.723; 4: 0.671; 5: 0.0183; 6: 0.0391

Each compound below has a reported value. Please supply its viability index.
1. CCOC(=O)c1ccc2nc(-c3ccccc3)cc(O)c2c1
2. Oc1ccc(-c2nc(-c3ccc4oc5ccc(-c6[nH]c(-c7ccc(O)cc7)nc6-c6ccccc6)cc5c4c3)c(-c3ccccc3)[nH]2)cc1

1: 0.719; 2: 0

* * *

# System: Plasmodium falciparum NF54 gametocytes
# assayMethodText: viability index relative to DMSO control (fraction); higher = less gametocyte killing
# conditionLabel: gametocyte stage: Stage I viability index; 12.5 µM; incubation time: 72 h
Criterion: viability index strictly under 0.7. Met: label 1. Not met: label 0.

Example entries begin here.
CCCCN(CCCC)S(=O)(=O)c1ccc(NC(=O)c2ccco2)cc1
label 0
Oc1ccc(Cl)cc1CNc1nc2ccccc2[nH]1
label 1

Determine if CCOC(=O)c1cnc2ccc(OC)cc2c1NCc1ccccc1 shows viability index strictly lower than 0.7.
label 1

Same again, this time with O=C1c2ccccc2-c2nnc(-c3ccc(Br)cc3)cc21
label 0

Same again, this time with COc1ccc(CNC(=O)c2cc3c(=O)n4ccccc4nc3n(CCc3ccccc3)c2=N)cc1
label 1

Same again, this time with COc1ccc(-c2nc(NC(=O)CS(=O)(=O)c3ccc(F)cc3)sc2C)cc1
label 1

Same again, this time with CCOc1cc(Cl)c(C(C)NC(=O)c2ccccc2)cc1OCC (stereo not drawn)
label 0

Same again, this time with O=C(Nc1ccc(Br)cc1)Nc1cccc(Cl)c1
label 1

* * *

# Test system: Plasmodium falciparum NF54 gametocytes
# assayMethodText: viability index relative to DMSO control (fraction); higher = less gametocyte killing
# conditionLabel: gametocyte stage: Stage I viability index; 12.5 µM; incubation time: 72 h
Criterion: viability index strictly under 0.2. Met: fulfilled. Not met: not fulfilled.

Example entries begin here.
CC(C)(C)c1ccc(O)c(CNC2CCCCC2)c1
not fulfilled
COc1cc(C(=O)Nc2ccc(-c3nc4ccccc4[nH]3)cc2)cc(OC)c1OC
fulfilled
CC(C)(C)CC(C)(C)NCC(O)COc1ccc(Cl)cc1Cl (centres undefined)
fulfilled
COc1cccc(Nc2nc(N)c3ccccc3n2)c1
fulfilled
Cc1ccc(Cl)cc1N1CCN(CCCNC(=O)C2CCN(c3nc4ccccc4[nH]3)CC2)CC1
fulfilled

Determine if CCOC(=O)C1(Cc2ccccc2)CCN(Cc2cccc(OC)c2O)CC1 shows viability index strictly lower than 0.2.
fulfilled

Same again, this time with CC(C)(C)c1ccc(C(=O)Nc2c3c(nn2-c2cccc(Cl)c2)CSC3)cc1
not fulfilled

Same again, this time with CCOC(=O)c1cnc2c(C)cc(C)cc2c1Nc1ccc(OC)c(OC)c1
not fulfilled

Same again, this time with COc1ccc(Br)cc1C1Nc2ccc3ccccc3c2C2=C1C(=O)CC(c1ccccc1)C2 (centres undefined)
not fulfilled

Same again, this time with CCCCc1ccc(NS(=O)(=O)c2cc3c4c(c2)CCN4C(=O)CC3)cc1
not fulfilled

Same again, this time with COc1ccccc1CNC(=O)C1c2ccccc2C(=O)N(CC(C)C)C1c1cccs1 (centres undefined)
not fulfilled

Same again, this time with c1ccc(Cn2c(N=Nc3c(Nc4ccccc4)ccc4ccccc34)nc3ccccc32)cc1
fulfilled

Same again, this time with CC(C)CCNCC(O)Cn1c2ccccc2c2ccccc21 (centres undefined)
fulfilled

* * *

# Test system: Plasmodium falciparum NF54 gametocytes
# assayMethodText: viability index relative to DMSO control (fraction); higher = less gametocyte killing
# conditionLabel: gametocyte stage: Stage IV viability index; 12.5 µM; incubation time: 72 h
Criterion: viability index strictly under 0.8. Met: true. Not met: false.

CCN(CC)CCNc1ncnc2c1[nH]c1ccc(Cl)cc12
true
Cn1c(=O)n(C)c2cc(CNCCNc3ccnc4cc(Cl)ccc34)ccc21
true
O=C1c2ccc3c4c(ccc(c24)C(=O)N1CCCCO)C(=O)N(CCCCO)C3=O
true
Cc1cc(NCCN2CCCCC2)c2ccc3ccccc3c2n1
true
O=C(c1ccccc1F)N(Cc1ccc(Cl)cc1)c1ccccn1
false

Determine if CCOc1ccc(-c2nc(NC(=O)c3cccc(S(C)(=O)=O)c3)sc2C)cc1 shows viability index strictly lower than 0.8.
false

Same again, this time with COc1ccc(C2Sc3ccccc3N=C3C2=C(O)c2ccccc23)cc1 (stereo unspecified)
false

* * *

# System: Plasmodium falciparum NF54 gametocytes
# assayMethodText: viability index relative to DMSO control (fraction); higher = less gametocyte killing
# conditionLabel: gametocyte stage: Stage V viability index; 12.5 µM; incubation time: 72 h
Consider the following compounds; for each one, report its viability index.
Numbers only.

Cc1ccc(CSCc2ccc(C(=O)NC3CC3)o2)cc1
0.978
Cc1cc(N(C)C)nc(Nc2ccc(NC(=O)Nc3ccccc3)cc2)n1
0
COc1ccc(-c2cc3c(nn2)-c2ccccc2C3=O)cc1
1
CCOc1ccc(CN2CCN(CC(O)COc3ccc(OCC(O)CN4CCN(Cc5ccc(OCC)cc5)CC4)cc3)CC2)cc1 (stereo not given)
0.0519

Which viability index is reported for this compound? Cc1cc(Nc2ccc(OCc3ccccc3)cc2)nc2cc(O)ccc12
0.481

* * *

# Test system: Plasmodium falciparum NF54 gametocytes
# assayMethodText: viability index relative to DMSO control (fraction); higher = less gametocyte killing
# conditionLabel: gametocyte stage: Stage IV viability index; 12.5 µM; incubation time: 72 h
Criterion: viability index strictly under 0.8. Met: True. Not met: False.

COc1cccc(NC(=O)Cn2c(C)c(C#N)c3ccccc32)c1
True
COc1ccccc1CNC(=O)C1c2ccccc2C(=O)N(CC(C)C)C1c1cccs1 (centres undefined)
False
COc1cc(C(=O)Nc2nc3c(cc4c5c(cccc53)CC4)s2)cc(OC)c1OC
True
Cc1ccc(Cl)cc1N1CCN(CCCNC(=O)C2CCN(c3nc4ccccc4[nH]3)CC2)CC1
True
CCOc1ccc(Nc2ccnc3cc(Cl)ccc23)cc1
True
CCOc1cc2c(cc1OCC)C(c1cc(Cl)ccc1O)NCC2 (centres undefined)
True
CCOc1cc2c(cc1OCC)C(c1cc(OC)c(O)cc1Cl)NCC2 (centres undefined)
True
Cc1ccc(C)c(Cn2c(N3CCC(C(=O)NCc4cccs4)CC3)nc3ccccc32)c1
True

Determine if CCOC(=O)C1=C(c2ccccc2)N=c2sc(=Cc3cc(C)n(-c4ccc(F)cc4)c3C)c(=O)n2C1c1cccc(OC)c1OC (centres undefined) shows viability index strictly lower than 0.8.
False

Same again, this time with CC(C)(C)CC(C)(C)NCC(O)COc1ccc2c(c1)CCC2 (centres undefined)
True

Same again, this time with CCOc1cc2c(cc1OCC)C(c1cc(Cl)c(O)c(OCC)c1)NCC2 (centres undefined)
False

Same again, this time with C=C(C)CCC(C)N1CCC(N2CCC(C(=O)NCCc3ccccc3)CC2)CC1 (centres undefined)
False

Same again, this time with COc1ccc(C(=O)C2CC2c2ccc(Cl)cc2)cc1 (centres undefined)
False

Same again, this time with CCOc1ccc2nc(C)cc(Nc3ccc(N(C)C)cc3)c2c1
False

Same again, this time with COc1ccc(-c2cc3c(nn2)-c2ccccc2C3=O)cc1
True

Same again, this time with Cc1ccc(-c2cc(C(=O)Nc3ccc(S(=O)(=O)N4CCCCC4)cc3)[nH]n2)c(O)c1
False

Same again, this time with Cc1cc(C)c2nc(N3CCC(C(=O)NCCCN4CCC(N5CCCCC5)CC4)CC3)sc2c1
True

* * *

# Test system: Plasmodium falciparum NF54 gametocytes
# assayMethodText: viability index relative to DMSO control (fraction); higher = less gametocyte killing
# conditionLabel: gametocyte stage: Stage II viability index; 12.5 µM; incubation time: 72 h
Criterion: viability index strictly under 0.5. Met: fulfilled. Not met: not fulfilled.

Example entries begin here.
CN1C=C(c2ccc3ccccc3n2)C(c2c[nH]c3ccccc23)c2ccccc21 (configuration not stated)
fulfilled
Cc1cccc(-n2ncc3c(=O)[nH]c(-n4nc(C)cc4NC(=O)c4cc5ccccc5o4)nc32)c1
fulfilled
COc1ccc(-c2nonc2NC(=O)c2cccc(Cl)c2)cc1OC
fulfilled

Determine if O=C1C2=C(Nc3ccccc3SC2c2ccccc2)c2ccccc21 (configuration not stated) shows viability index strictly lower than 0.5.
not fulfilled

Same again, this time with Cc1ccc(NC(=O)Nc2cccc(Cl)c2)cc1F
not fulfilled

Same again, this time with Cc1cc(Nc2ccc(OCc3ccccc3)cc2)nc2cc(O)ccc12
fulfilled

Same again, this time with O=[N+]([O-])c1ccc(C=NNc2nc3ccccc3[nH]2)cc1
not fulfilled
